system: 598228-144-R-J1-PDC complex spheroids, viability; assay: Anticancer human tumor 598228-144-R-J1-PDC patient-derived serous endometrial adenocarcinoma cell line growth inhibition [CLK]; conditions: second compound 0.316 µM; first compound 3.16 µM; hits give low values;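 note: spheroids exposed to compounds for seven days before readout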
Kindly apply the following: Yes if viability, T/C is less than 20%, No in every other case.

Compound	Label class
C=C(F)C(=O)N1CCN(c2nc(OCC3CCCN3C)nc3c2CCN(c2cccc4cccc(Cl)c24)C3)CC1CC#N (stereo not given) + CN1CCN(c2cc(C(=O)Nc3cc4cc(-c5cnn(C)c5)ccc4cn3)ccn2)CC1	Yes
CC1COCCN1c1cc(C2(S(C)(=N)=O)CC2)nc(-c2ccnc3[nH]ccc23)n1 (stereo not given) + CN1CCN(c2cc(C(=O)Nc3cc4cc(-c5cnn(C)c5)ccc4cn3)ccn2)CC1	Yes

In plain terms, does COc1cccc2c1C(=O)c1c(O)c3c(c(O)c1C2=O)CC(O)(C(=O)CO)CC3OC1CC(N)C(O)C(C)O1 (stereo not given) + CNC(=O)c1ccc(Nc2nc(OC3CCCC3)c3c(-c4ccc5nc(C)oc5c4)c[nH]c3n2)c(OC)c1 come in under 20% for viability, T/C? Yes

Is viability, T/C strictly under 20% for the entry CC(CO)NC(=O)c1cc(-c2ccc(Cl)cc2)nn(-c2cnn(C)c2)c1=O (stereo not given) + CN1CCN(c2cc(C(=O)Nc3cc4cc(-c5cnn(C)c5)ccc4cn3)ccn2)CC1 ? Yes

Hello, is viability, T/C of the following compound strictly smaller than 20%? Nc1ccn(C2OC(CO)C(O)C2(F)F)c(=O)n1 (stereo not given) + CN1CCN(c2cc(C(=O)Nc3cc4cc(-c5cnn(C)c5)ccc4cn3)ccn2)CC1 Yes

Is the reported viability, T/C for O=C(c1cc(Cc2n[nH]c(=O)c3ccccc23)ccc1F)N1CCN(C(=O)C2CC2)CC1 + CN1CCN(c2cc(C(=O)Nc3cc4cc(-c5cnn(C)c5)ccc4cn3)ccn2)CC1 strictly below 20%? Yes

Determine if COc1ccc([C@@H](O)c2cc(-c3ncnc4cc(N5CCOCC5)ccc34)c(F)cc2Cl)nn1 + CNC(=O)c1ccc(Nc2nc(OC3CCCC3)c3c(-c4ccc5nc(C)oc5c4)c[nH]c3n2)c(OC)c1 shows viability, T/C strictly lower than 20%. No

Below 20% on viability, T/C? Entry COC1C=CCC(C)C(C)S(=O)(=O)NC(=O)c2ccc3c(c2)N(CC2CCC21)CC1(CCCc2cc(Cl)ccc21)CO3 (stereo not given) + CNC(=O)c1ccc(Nc2nc(OC3CCCC3)c3c(-c4ccc5nc(C)oc5c4)c[nH]c3n2)c(OC)c1 No

# TODO verify viability, T/C < 20% strictly for this compound: CC1(C)CCC(CN2CCN(c3ccc(C(=O)NS(=O)(=O)c4ccc(NCC5CCOCC5)c([N+](=O)[O-])c4)c(Oc4cnc5[nH]ccc5c4)c3)CC2)=C(c2ccc(Cl)cc2)C1 + CNC(=O)c1ccc(Nc2nc(OC3CCCC3)c3c(-c4ccc5nc(C)oc5c4)c[nH]c3n2)c(OC)c1 No
